# assay_method_text: BSK_4H_SRB: Viability Assessment in the BioMAP Diversity Plus: 4H Assay (AID 2283027);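 further: cells exposed to compound for 24 h before staining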
# measurement_setup: primary human endothelial cells (HUVEC)
# Protocol: BSK_4H is a cell-based, multiplexed-readout assay that uses umbilical vein endothelium, a human vascular primary cell, with measurements taken at 24 hours after chemical dosing in a 96-well plate.BSK_4H_SRB is an assay component measured in the BSK_4H assay. It measures […] related to cell death using Sulforhodamine staining technology.Data from the assay component BSK_4H_SRB was analyzed into 1 assay endpoint. […]
Calls of active or inactive are those of the source. How the source made its calls: active means hit-call score of the fitted dose curve at least 0.9, where 1 is the maximum; inactive means score below 0.9.
Pick one: active, inactive

Completed entries (count: 5):
compound	class_name
NC(=O)N(O)[C@@H]1COc2cc(OCc3ccccc3)ccc21	inactive
CCCCCCCCCC	inactive
CCCCN1C(=O)[C@@H]([C@H](O)C2CCCCC2)NC(=O)C12CCN(Cc1ccc(Oc3ccc(C(=O)O)cc3)cc1)CC2	active
Cc1nccn1-c1ccc(Sc2cccc(C3(C(N)=O)CCOCC3)c2)cc1	inactive
COS(C)(=O)=O	inactive

How was CCOC(N)=O classified in this test?
inactive

How was OCC(CO)(CO)CO classified in this test?
inactive

How was CCCCCOC(C)=O classified in this test?
inactive

How was CC1(C)C(=O)N(Cl)C(=O)N1Cl classified in this test?
inactive

How was C[C@]12C=CC(=O)C=C1CC[C@H]1[C@@H]3C[C@@H](O)[C@](O)(C(=O)CO)[C@@]3(C)C[C@H](O)[C@@]12F classified in this test?
inactive

---

# measured_on: human Sirtuin 1 (SIRT1), SIRT1 (gene 23411)
# assay_method_text: NVS_ENZ_hSIRT1: NovaScreen (NVS) Enzymatic Assay for human Sirtuin 1 (SIRT1) (AID 2283219)
Inconclusive results are not listed. The source made the active and inactive calls. The calls were made as follows: active = hit-call score of the fitted dose curve at least 0.9, where 1 is the maximum; inconclusive = response in the unintended direction; inactive = score below 0.9.
reported_metric: outcome

Solved cases (5 shown):
1) NC(N)=O inactive
2) Cn1cc[nH]c1=S inactive
3) O=c1[nH]cnc2c1ncn2[C@H]1CC[C@@H](CO)O1 inactive
4) CCN(CC)C(=S)SSC(=S)N(CC)CC inactive
5) NNC(=O)c1ccncc1 inactive

Param readout= outcome; system= human Sirtuin 1 (SIRT1), SIRT1 (gene 23411); entry= CC(=O)c1ccccc1 ; returns value.
inactive

Param readout= outcome; system= human Sirtuin 1 (SIRT1), SIRT1 (gene 23411); entry= Cc1ncc([C@@H](CCCCCCc2ccc3c(n2)NCCC3)CC(=O)O)cn1 ; returns value.
inactive

Param readout= outcome; system= human Sirtuin 1 (SIRT1), SIRT1 (gene 23411); entry= CCc1cccc(CC)c1N ; returns value.
inactive

Param readout= outcome; system= human Sirtuin 1 (SIRT1), SIRT1 (gene 23411); entry= CCCC(CCC)C(=O)O ; returns value.
inactive

Param readout= outcome; system= human Sirtuin 1 (SIRT1), SIRT1 (gene 23411); entry= CC(C)c1nnc2ccc(-c3ocnc3-c3cc(F)ccc3F)cn12 ; returns value.
inactive

---

# Read-out: E-selectin (Homo sapiens)
# assay_method_text: BSK_LPS_Eselectin: BioMAP Diversity Plus: LPS Assay for Eselectin Biomarker Activity (AID 2283077)
# measurement_setup: primary human HUVEC with PBMC; actives raise or lower the signal
Activity calls are given as the source filed them. Rule for the calls: active = hit-call score of the fitted dose curve at least 0.9, where 1 is the maximum; inactive = score below 0.9.
Pick one: active, inactive

Completed entries (count: 8):
1) O=c1[nH]cnc2c1ncn2[C@H]1CC[C@@H](CO)O1 inactive
2) Cn1c(=O)c2[nH]cnc2n(C)c1=O inactive
3) Cc1ccc(S(=O)(=O)NC(=O)NN2CCCCCC2)cc1 inactive
4) OC(CCl)CCl inactive
5) CCn1nc(C)c2c1C(=O)NCC(c1ccc(O)cc1)=N2 inactive
6) OC[C@H]1O[C@@H]2O[C@H]3[C@H](O)[C@@H](O)[C@@H](O[C@H]4[C@H](O)[C@@H](O)[C@@H](O[C@H]5[C@H](O)[C@@H](O)[C@@H](O[C@H]6[C@H](O)[C@@H](O)[C@@H](O[C@H]7[C@H](O)[C@@H](O)[C@@H](O[C@H]1[C@H](O)[C@H]2O)O[C@@H]7CO)O[C@@H]6CO)O[C@@H]5CO)O[C@@H]4CO)O[C@@H]3CO inactive
7) CCOC(N)=O inactive
8) COc1cc(C(C)C)c2c(c1)S(=O)(=O)N(COc1cc(=O)n3cccc(OCCN4CCCCC4)c3n1)C2=O active

Next compound, please.
How was COS(C)(=O)=O classified in this test?
inactive
